Test: Tolerability in Sprague-Dawley rats: kidney function (Example 23)
Format: in vivo
Settings: total urine samples
OBSERVATION TYPE: Urine protein/creatinine ratio
Simply state the number, no unit and no words.

- GCATTGGTGCACAGTTTCTG (antisense; all C 5-methyl, all phosphorothioate, sugars by position not given here; MOE gapmer, 5-10-5) [ISIS 412224, 5-10-5 MOE gapmer]: 3.8

Which measured Urine protein/creatinine ratio value corresponds to GCAGCGGACGGCATTGGTGC (antisense; all C 5-methyl, all phosphorothioate, sugars by position not given here; MOE gapmer, 5-10-5) [ISIS 412225, 5-10-5 MOE gapmer] ? 4.0

Request: GGACGGCATTGGTGCACAGT (antisense; all C 5-methyl, all phosphorothioate, sugars by position not given here; MOE gapmer, 5-10-5) [ISIS 413482, 5-10-5 MOE gapmer] 4.8

Request: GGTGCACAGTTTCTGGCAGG (all C 5-methyl, all phosphorothioate, sugars by position not given here; MOE gapmer) [ISIS 413481, 5-10-5 MOE gapmer] 3.6

Request: ACAGTTTCTGGCAGGCCTCG (antisense; all C 5-methyl, all phosphorothioate, sugars by position not given here; MOE gapmer, 5-10-5) [ISIS 412223, 5-10-5 MOE gapmer] 4.6
